Attribution: patent US12180193B2

- systemName: BRAF G466V (Homo sapiens, UniProt P15056, G466V)
- Construct: expressed in transfected cells
- Sequence (P15056 whole entry G466V): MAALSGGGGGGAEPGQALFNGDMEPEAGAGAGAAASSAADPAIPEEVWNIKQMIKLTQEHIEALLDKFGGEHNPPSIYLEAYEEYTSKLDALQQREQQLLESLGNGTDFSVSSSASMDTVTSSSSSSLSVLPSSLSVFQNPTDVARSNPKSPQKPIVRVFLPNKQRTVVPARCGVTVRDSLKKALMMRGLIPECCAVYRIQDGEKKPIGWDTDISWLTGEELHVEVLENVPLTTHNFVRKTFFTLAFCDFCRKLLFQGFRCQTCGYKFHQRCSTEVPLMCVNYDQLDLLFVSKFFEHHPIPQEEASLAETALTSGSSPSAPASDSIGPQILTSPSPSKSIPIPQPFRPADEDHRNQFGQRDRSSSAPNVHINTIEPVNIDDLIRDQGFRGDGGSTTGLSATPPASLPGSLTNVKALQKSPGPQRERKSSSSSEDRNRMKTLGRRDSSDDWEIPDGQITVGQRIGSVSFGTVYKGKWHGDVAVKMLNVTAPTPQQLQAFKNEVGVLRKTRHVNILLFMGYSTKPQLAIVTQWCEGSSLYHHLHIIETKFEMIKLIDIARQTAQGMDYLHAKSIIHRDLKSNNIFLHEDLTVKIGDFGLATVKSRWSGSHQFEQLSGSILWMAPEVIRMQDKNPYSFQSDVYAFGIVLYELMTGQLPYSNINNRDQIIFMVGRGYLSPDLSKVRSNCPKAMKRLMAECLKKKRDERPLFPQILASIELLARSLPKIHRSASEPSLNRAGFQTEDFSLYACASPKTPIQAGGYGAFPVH
- assayMethodText: Cellular assay of target protein degradation, T-Rex 293 cells stably transfected with HA-BRAF G466V (HA immunofluorescence, high content imaging)
- Type: cell-based
- details: half maximal degradation, T-Rex 293 HA-BRAF G466V; read-out: BRaf G466V DC50
Below: a set of entries, each annotated with reported DC50.
property: DC50

molecule	property	recordedValue
O=C1CC[C@H](N2Cc3cc(C[C@H](O)CN4CCN(c5ccc(-c6cnc7[nH]cc(C(=O)c8c(F)ccc(NS(=O)(=O)N9CC[C@@H](F)C9)c8F)c7c6)cc5)CC4)ccc3C2=O)C(=O)N1 [Compound 74]	DC50	1 to 10 nM
O=C1CC[C@@H](N2Cc3cc(N4CCC(CN5CCN(c6ccc(-c7cnc8[nH]cc(C(=O)c9c(F)ccc(NS(=O)(=O)N%10CC[C@@H](F)C%10)c9F)c8c7)cc6)CC5)CC4)ccc3C2=O)C(=O)N1 [Compound 224]	DC50	1 to 10 nM
O=C1CCC(N2Cc3cc(N4CCC(O)(CN5CC6(C5)CN(c5ccc(-c7cnc8[nH]cc(C(=O)c9c(F)ccc(NS(=O)(=O)N%10CC[C@@H](F)C%10)c9F)c8c7)cc5)C6)CC4)ccc3C2=O)C(=O)N1 (some centres unmarked) [Compound 142]	DC50	1 to 10 nM
O=C1CCC(N2Cc3cc(C4CCN(CCOc5ccc(-c6cnc7[nH]cc(C(=O)c8c(F)ccc(NS(=O)(=O)N9CC[C@@H](F)C9)c8F)c7c6)cc5)CC4)ccc3C2=O)C(=O)N1 (some centres unmarked) [Compound 69]	DC50	1 to 10 nM
O=C1CC[C@H](NC(=O)N2CCCc3c(N4CCN(CC5CCN(c6ccc(-c7cnc8[nH]cc(C(=O)c9c(F)ccc(NS(=O)(=O)N%10CC[C@@H](F)C%10)c9F)c8c7)cc6)CC5)CC4)ccnc32)C(=O)N1 [Compound 369]	DC50	1 to 10 nM
O=C1CCC(N2Cc3ccc(C4CCN(CC5CCN(c6ccc(-c7cnc8[nH]cc(C(=O)c9c(F)ccc(NS(=O)(=O)N%10CC[C@@H](F)C%10)c9F)c8c7)cc6)CC5)CC4)cc3C2=O)C(=O)N1 (some centres unmarked) [Compound 185]	DC50	1 to 10 nM
O=C1CC[C@@H](NC(=O)N2CCCc3c(N4CCC(CN5CCN(c6ccc(-c7cnc8[nH]cc(C(=O)c9c(F)ccc(NS(=O)(=O)N%10CC[C@@H](F)C%10)c9F)c8c7)cc6)CC5)CC4)ccnc32)C(=O)N1 [Compound 372]	DC50	> 30 nM
COc1cc(C2CCN(CC3CCN(c4ccc(-c5cnc6[nH]cc(C(=O)c7c(F)ccc(NS(=O)(=O)N8CC[C@@H](F)C8)c7F)c6c5)cn4)CC3)CC2)cc2c1C(=O)N(C1CCC(=O)NC1=O)C2 (some centres unmarked) [Compound 164]	DC50	< 1 nM

====

- systemName: BRAF V600E (Homo sapiens, UniProt P15056, V600E)
- Construct: expressed in transfected cells
- Sequence (P15056 whole entry V600E): as the sequence (P15056 whole entry G466V) above, with V466G, V600E counted along it
- assayMethodText: Cellular assay of target protein degradation, T-Rex 293 cells stably transfected with HA-BRAF_V600E (HA immunofluorescence, high content imaging)
- Format: cell-based
- details: maximum degradation observed, T-Rex 293 HA-BRAF V600E
property: Dmax

molecule	recordedValue
O=C1CC[C@H](N2Cc3cc([C@@H](O)CCN4CC5(C4)CN(c4ccc(-c6cnc7[nH]cc(C(=O)c8c(F)ccc(NS(=O)(=O)N9CC[C@@H](F)C9)c8F)c7c6)cc4)C5)ccc3C2=O)C(=O)N1	35 to 70%
O=C1CCC(N2Cc3cc(OCCCCN4CCN(c5ccc(-c6cnc7[nH]cc(C(=O)c8c(F)ccc(NS(=O)(=O)N9CCC(F)(F)C9)c8F)c7c6)cc5)CC4)ccc3C2=O)C(=O)N1 (stereo not drawn)	35 to 70%
O=C1CC[C@@H](N2Cc3cc(N4CCN(CC5CCN(c6ccc(-c7cnc8[nH]cc(C(=O)c9c(F)ccc(NS(=O)(=O)N%10CC[C@@H](F)C%10)c9F)c8c7)cc6)CC5)CC4)ccc3C2=O)C(=O)N1	35 to 70%
CN(CC(F)F)S(=O)(=O)Nc1ccc(F)c(C(=O)c2c[nH]c3ncc(-c4ccc(N5CCC(CN6CCC(c7ccc8c(c7)CN(C7CCC(=O)NC7=O)C8=O)CC6)CC5)cc4)cc23)c1F (stereo not drawn)	35 to 70%
O=C1CCC(N2Cc3cc(N4CCC(CN5CCC(C6(c7ccc(-c8cnc9[nH]cc(C(=O)c%10c(F)ccc(NS(=O)(=O)N%11CC[C@@H](F)C%11)c%10F)c9c8)cc7)CC6)CC5)CC4)ccc3C2=O)C(=O)N1 (stereo partly drawn)	< 35%
O=C1CCC(N2Cc3cc(N4CC5(CN(c6ccc(-c7cnc8[nH]cc(C(=O)c9c(F)ccc(NS(=O)(=O)N%10CC[C@@H](F)C%10)c9F)c8c7)cc6)C5)C4)ccc3C2=O)C(=O)N1 (stereo partly drawn)	> 70%
O=C1CC[C@@H](N2Cc3cc(CC[C@@H](O)CN4CC5(C4)CN(c4ccc(-c6cnc7[nH]cc(C(=O)c8c(F)ccc(NS(=O)(=O)N9CC[C@@H](F)C9)c8F)c7c6)cc4)C5)ccc3C2=O)C(=O)N1	35 to 70%
O=C1CCC(N2Cc3cc(CCCN4CC5(C4)CN(c4ccc(-c6cnc7[nH]cc(C(=O)c8c(F)ccc(NS(=O)(=O)N9CCC(F)(F)C9)c8F)c7c6)cc4)C5)ccc3C2=O)C(=O)N1 (stereo not drawn)	35 to 70%
COc1cc(C2CCN(CC3CCN(c4ccc(-c5cnc6[nH]cc(C(=O)c7c(F)ccc(NS(=O)(=O)N8CC[C@@H](F)C8)c7F)c6c5)cc4)CC3)CC2)ccc1C(=O)NC1CCC(=O)NC1=O (stereo partly drawn)	< 35%
